- Tested on: L1210 leukemia ip in BDF1 mice, survival T/C
- Protocol Text: NCI In Vivo Anticancer Drug Screen. Data for tumor model L1210 Leukemia (intraperitoneal) in B6D2F1 (BDF1) mice
- Condition Parameters: endpoint: mean survival time; dose: 200.0 mg/kg/injection; schedule: Q01DX009 (ip); vehicle: saline with Tween-80; higher = longer survival
Toxic doses and inconclusive results are not listed.
T/C values, listed per item

Example entries and their recorded answers appear below.
>>> df
                                   compound  measurement_type            result
0  CCCCCCOC(=O)C(O)c1ccccc1 (stereo not drawn)               T/C   95 % of control
1                    Cc1ccc(C(=O)C2CC2)cc1C               T/C   91 % of control
2               CCOC(=O)c1c(C)[nH]c(C)cc1=O               T/C  102 % of control
3              Cc1cccc(NC(=O)c2ccccc2Cl)c1C               T/C   95 % of control
4           CC(C)[Si](F)(c1ccc(Br)cc1)C(C)C               T/C   95 % of control
5            CCOC(=O)N/N=C/C(Br)=C\c1ccccc1               T/C   87 % of control

(Q) What T/C appears in the records for this compound with L1210 leukemia ip in BDF1 mice, survival T/C? CCC(=O)C(CC)c1cccc(OC)c1 (stereo not drawn)
(A) 94 % of control

(Q) What reported T/C corresponds to [O-][n+]1ccccc1C(c1ccccc1)c1ccccc1 on L1210 leukemia ip in BDF1 mice, survival T/C?
(A) 90 % of control

(Q) Request body: readout T/C, system L1210 leukemia ip in BDF1 mice, survival T/C, query NS(=O)(=O)c1ccc(N=Nc2nc3[nH]c(=O)[nH]c(=O)c3[nH]2)cc1 . Return the value.
(A) 94 % of control

(Q) Recorded T/C for CCOC(=O)CNC(=O)NCc1ccc2c(c1)OCO2 with L1210 leukemia ip in BDF1 mice, survival T/C, please?
(A) 90 % of control

(Q) Give L1210 leukemia ip in BDF1 mice, survival T/C T/C for Cc1cc(N(CCCOS(C)(=O)=O)CCCOS(C)(=O)=O)ccc1C=Nc1ccc(-c2csc(COc3ccc(Cl)cc3Cl)n2)cc1
(A) 96 % of control

(Q) Identify the measured T/C of CN(C)N=Nc1ccc(Cl)cc1 for L1210 leukemia ip in BDF1 mice, survival T/C.
(A) 90 % of control

(Q) Report T/C for CC1C(=O)CC(C)(C)CC1=O tested on L1210 leukemia ip in BDF1 mice, survival T/C.
(A) 109 % of control

(Q) Can you look up T/C on L1210 leukemia ip in BDF1 mice, survival T/C for O=c1c2ccccc2c(-c2ccccc2)nn1Cc1ccccc1 ?
(A) 102 % of control

(Q) GET /values?readout=T/C&system=L1210 leukemia ip in BDF1 mice, survival T/C&item= OC1CCCCC1c1ccccc1 (stereo not drawn)
(A) 97 % of control

(Q) Form field: T/C recorded for CC(=O)Oc1cc2ccccc2cc1C(C)C with L1210 leukemia ip in BDF1 mice, survival T/C (enter value)
(A) 98 % of control

(Q) State its T/C on L1210 leukemia ip in BDF1 mice, survival T/C: Cc1cccc(OC(=O)Nc2ccc(Cl)cc2)c1
(A) 93 % of control
